Listed below: pEC50 values for each entry.
Target: hNET (Homo sapiens)
Sequence (P23975 whole entry): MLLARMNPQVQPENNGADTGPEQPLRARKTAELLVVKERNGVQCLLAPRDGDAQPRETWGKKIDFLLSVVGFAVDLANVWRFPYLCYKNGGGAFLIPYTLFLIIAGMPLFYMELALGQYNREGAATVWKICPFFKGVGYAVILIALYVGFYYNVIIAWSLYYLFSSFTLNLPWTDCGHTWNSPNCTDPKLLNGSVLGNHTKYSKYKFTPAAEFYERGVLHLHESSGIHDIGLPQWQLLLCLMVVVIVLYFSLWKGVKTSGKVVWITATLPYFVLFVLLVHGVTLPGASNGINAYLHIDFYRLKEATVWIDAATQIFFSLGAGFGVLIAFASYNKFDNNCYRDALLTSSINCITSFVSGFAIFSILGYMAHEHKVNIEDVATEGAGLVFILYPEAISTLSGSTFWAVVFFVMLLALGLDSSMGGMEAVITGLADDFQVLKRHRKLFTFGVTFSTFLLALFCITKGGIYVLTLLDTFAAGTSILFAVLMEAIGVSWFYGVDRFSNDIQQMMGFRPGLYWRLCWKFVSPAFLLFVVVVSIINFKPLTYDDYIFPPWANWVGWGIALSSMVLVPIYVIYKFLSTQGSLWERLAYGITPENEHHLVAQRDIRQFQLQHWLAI
Test: Drug-induced release of preloaded [3H]NE from HEK-hNET cells
Assay type: cell-based
Conditions: read-out: Drug-induced release of [3H]neurotransmitter EC50 ± sem, hNET [3H]NE; HEK-hNET cells
pEC50: −log10 of the molar value.
measurement.kind: pEC50

[
  {
    "compound": "CCCC(C(=O)c1ccc2c(c1)CCCC2)N1CCCC1 (stereo not drawn)",
    "sign.qualifier": "<",
    "number": 5.00
  },
  {
    "compound": "CCCC(C(=O)c1ccc(Cl)cc1)N1CCCC1 (stereo not drawn)",
    "sign.qualifier": "<",
    "number": 5.00
  },
  {
    "compound": "CNC(C)Cc1ccc2ccoc2c1 (stereo not drawn)",
    "sign.qualifier": "=",
    "number": 6.19
  },
  {
    "compound": "CNC(C)Cc1ccc2occc2c1 (stereo not drawn)",
    "sign.qualifier": "=",
    "number": 6.24
  },
  {
    "compound": "CCNC(C)C(=O)c1ccc(Cl)cc1 (stereo not drawn)",
    "sign.qualifier": "<",
    "number": 4.00
  },
  {
    "compound": "CC(C(=O)c1ccc2c(c1)OCO2)N(C)C (stereo not drawn)",
    "sign.qualifier": "<",
    "number": 5.00
  },
  {
    "compound": "CNC(C)Cc1cc2ccccc2o1 (stereo not drawn)",
    "sign.qualifier": "=",
    "number": 6.35
  },
  {
    "compound": "CNC(C)C(=O)c1ccccc1 (stereo not drawn) [MCAT, methcathinone, reference compound]",
    "sign.qualifier": "=",
    "number": 6.40
  },
  {
    "compound": "CC(N)Cc1ccc2ccoc2c1 (stereo not drawn)",
    "sign.qualifier": "=",
    "number": 7.29
  }
]

###

Measured % maximum release ± sem, hDAT [3H]DA of individual entries
Target: hDAT (Homo sapiens, UniProt Q01959)
Sequence (Q01959 whole entry): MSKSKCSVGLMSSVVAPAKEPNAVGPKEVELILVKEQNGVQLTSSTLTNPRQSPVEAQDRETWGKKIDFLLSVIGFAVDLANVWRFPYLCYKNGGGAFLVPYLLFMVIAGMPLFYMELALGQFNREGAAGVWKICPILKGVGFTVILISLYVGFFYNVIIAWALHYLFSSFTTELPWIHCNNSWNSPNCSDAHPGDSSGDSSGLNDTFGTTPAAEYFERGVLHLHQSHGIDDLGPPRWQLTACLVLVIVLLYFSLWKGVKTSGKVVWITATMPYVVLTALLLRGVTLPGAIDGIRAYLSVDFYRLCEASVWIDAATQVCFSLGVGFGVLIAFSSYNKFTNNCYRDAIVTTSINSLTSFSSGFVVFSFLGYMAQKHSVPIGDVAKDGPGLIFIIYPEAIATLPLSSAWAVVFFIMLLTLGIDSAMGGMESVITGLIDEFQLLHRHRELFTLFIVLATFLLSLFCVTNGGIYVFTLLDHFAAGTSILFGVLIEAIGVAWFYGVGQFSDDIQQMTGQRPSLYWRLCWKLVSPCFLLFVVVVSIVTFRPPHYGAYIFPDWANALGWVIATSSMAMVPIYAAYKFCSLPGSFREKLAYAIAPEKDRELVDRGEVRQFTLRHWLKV
Assay: Drug-induced release of preloaded [3H]DA from HEK-hDAT cells
Assay type: cell-based
Conditions: relative to maximal AUC induced by METH (1 or 10 μM)

[
  {
    "compound": "CNC(C)Cc1ccc2occc2c1 (stereo not drawn) [5-MAPB, N,α-dimethyl-5-benzofuranethanamine]",
    "sign.qualifier": "=",
    "% maximum release ± sem, hDAT [3H]DA (%)": 53.8
  },
  {
    "compound": "CNC(COC)C(=O)c1ccc(C)cc1 (stereo not shown) [Mexedrone]",
    "sign.qualifier": "=",
    "% maximum release ± sem, hDAT [3H]DA (%)": 3.04
  },
  {
    "compound": "CNC(C)C(=O)c1ccccc1 (stereo not shown) [MCAT, methcathinone, reference compound]",
    "sign.qualifier": "=",
    "% maximum release ± sem, hDAT [3H]DA (%)": 79.0
  },
  {
    "compound": "CC(C(=O)c1ccc2c(c1)OCO2)N(C)C (stereo not shown) [Dimethylone, bk-MDDMA]",
    "sign.qualifier": "<",
    "% maximum release ± sem, hDAT [3H]DA (%)": 1
  },
  {
    "compound": "CCNC(C)C(=O)c1ccc(Cl)cc1 (stereo not shown) [4-CEC, 4-Cl-ethcathinone]",
    "sign.qualifier": "=",
    "% maximum release ± sem, hDAT [3H]DA (%)": 1.17
  },
  {
    "compound": "CCCC(NCC)C(=O)c1ccc2c(c1)OCO2 (stereo not shown) [N-Et pentylone, N-ethyl pentylone]",
    "sign.qualifier": "<",
    "% maximum release ± sem, hDAT [3H]DA (%)": 1
  },
  {
    "compound": "CCCC(C(=O)c1ccc2c(c1)CCCC2)N1CCCC1 (stereo not shown) [TH-PVP]",
    "sign.qualifier": "<",
    "% maximum release ± sem, hDAT [3H]DA (%)": 1
  },
  {
    "compound": "CNC(C)Cc1ccc2ccoc2c1 (stereo not drawn) [6-MAPB, N,α-dimethyl-6-benzofuranethanamine]",
    "sign.qualifier": "=",
    "% maximum release ± sem, hDAT [3H]DA (%)": 40.6
  },
  {
    "compound": "CC(N)Cc1ccc2ccoc2c1 (stereo not drawn) [6-APB, α-methyl-6-benzofuranethanamine]",
    "sign.qualifier": "=",
    "% maximum release ± sem, hDAT [3H]DA (%)": 68.2
  },
  {
    "compound": "CN[C@@H](C)Cc1ccccc1 [METH, methamphetamine, reference compound]",
    "sign.qualifier": "=",
    "% maximum release ± sem, hDAT [3H]DA (%)": 106.7
  },
  {
    "compound": "CNC(C)Cc1ccc2c(c1)CCO2 (stereo not shown) [5-MAPDB]",
    "sign.qualifier": "=",
    "% maximum release ± sem, hDAT [3H]DA (%)": 32
  },
  {
    "compound": "CCCC(C(=O)c1ccc(Cl)cc1)N1CCCC1 (stereo not drawn) [4-Cl-α-PVP, 4’-chloro-α–pyrrolidinopentiophenone]",
    "sign.qualifier": "<",
    "% maximum release ± sem, hDAT [3H]DA (%)": 1
  },
  {
    "compound": "CNC(C)Cc1cc2ccccc2o1 (stereo not drawn) [2-MAPB, N,α-dimethyl-2-benzofuranethanamine]",
    "sign.qualifier": "=",
    "% maximum release ± sem, hDAT [3H]DA (%)": 48.0
  }
]

###

Molecular target: hSERT (Homo sapiens, UniProt P31645)
Sequence (P31645 whole entry): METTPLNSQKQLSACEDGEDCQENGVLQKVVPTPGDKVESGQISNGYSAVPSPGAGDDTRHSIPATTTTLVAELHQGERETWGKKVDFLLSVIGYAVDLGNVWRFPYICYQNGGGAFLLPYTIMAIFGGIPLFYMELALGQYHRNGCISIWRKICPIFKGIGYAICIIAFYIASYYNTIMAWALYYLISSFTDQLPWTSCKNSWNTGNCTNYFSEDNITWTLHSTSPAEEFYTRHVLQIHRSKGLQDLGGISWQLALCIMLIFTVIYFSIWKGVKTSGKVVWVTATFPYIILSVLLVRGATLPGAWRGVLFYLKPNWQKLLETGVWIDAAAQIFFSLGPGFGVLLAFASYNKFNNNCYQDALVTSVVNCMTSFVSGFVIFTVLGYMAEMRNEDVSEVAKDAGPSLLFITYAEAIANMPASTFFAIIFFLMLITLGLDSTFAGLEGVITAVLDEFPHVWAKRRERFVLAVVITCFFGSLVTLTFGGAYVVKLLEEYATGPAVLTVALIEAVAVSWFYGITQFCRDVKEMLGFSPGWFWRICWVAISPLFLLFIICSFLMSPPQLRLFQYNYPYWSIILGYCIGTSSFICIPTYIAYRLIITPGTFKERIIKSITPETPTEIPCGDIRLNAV
Assay: Drug-induced release of preloaded [3H]5-HT from HEK-hSERT cells
Assay type: cell-based
Details: relative to maximal AUC induced by METH (0.3–1 mM)
The following compounds are shown together with reported % maximum release ± sem, hSERT [3H]5-HT values.
measurement.kind: % maximum release ± sem, hSERT [3H]5-HT (%)

[
  {
    "compound": "CCCC(NCC)C(=O)c1ccc2c(c1)OCO2 (stereo not drawn)",
    "sign.qualifier": "=",
    "number": 7.2
  },
  {
    "compound": "CC(C(=O)c1ccc2c(c1)OCO2)N(C)C (stereo not drawn)",
    "sign.qualifier": "<",
    "number": 1
  },
  {
    "compound": "CCCC(C(=O)c1ccc(Cl)cc1)N1CCCC1 (stereo not drawn)",
    "sign.qualifier": "<",
    "number": 1
  },
  {
    "compound": "CN[C@@H](C)Cc1ccccc1 [METH, methamphetamine, reference compound]",
    "sign.qualifier": "=",
    "number": 101.8
  },
  {
    "compound": "CNC(C)Cc1ccc2occc2c1 (stereo not drawn)",
    "sign.qualifier": "=",
    "number": 104.3
  },
  {
    "compound": "CNC(C)Cc1ccc2ccoc2c1 (stereo not drawn)",
    "sign.qualifier": "=",
    "number": 107.0
  },
  {
    "compound": "CC(N)Cc1ccc2ccoc2c1 (stereo not drawn)",
    "sign.qualifier": "=",
    "number": 119
  },
  {
    "compound": "CNC(C)Cc1ccc2c(c1)CCO2 (stereo not drawn)",
    "sign.qualifier": "=",
    "number": 95.7
  },
  {
    "compound": "CNC(C)Cc1cc2ccccc2o1 (stereo not drawn)",
    "sign.qualifier": "=",
    "number": 77.3
  },
  {
    "compound": "CCCC(C(=O)c1ccc2c(c1)CCCC2)N1CCCC1 (stereo not drawn)",
    "sign.qualifier": "<",
    "number": 1
  },
  {
    "compound": "CNC(COC)C(=O)c1ccc(C)cc1 (stereo not drawn)",
    "sign.qualifier": "=",
    "number": 84
  },
  {
    "compound": "CNC(C)C(=O)c1ccccc1 (stereo not drawn) [MCAT, methcathinone, reference compound]",
    "sign.qualifier": "=",
    "number": 65.0
  }
]

###

Entries annotated with measured Ki
Target: hDAT (Homo sapiens)
Test: Inhibition of [125I]RTI-55 binding, HEK-hDAT membranes

[
  {
    "compound": "CCCCCCC(C(=O)c1ccccc1)N1CCCC1 (stereo not drawn) [PV9, 1-phenyl-2-(pyrrolidin-1-yl)octan-1-one]",
    "Ki": "0.018 µM"
  },
  {
    "compound": "CCCCC(C(=O)c1ccc(C)cc1)N1CCCC1 (stereo not drawn) [4-Me-α-PHP, 4’-methyl-α–pyrrolidinohexanophenone]",
    "Ki": "0.023 µM"
  },
  {
    "compound": "CC(C(=O)c1ccc(Cl)cc1)N1CCCC1 (stereo not drawn) [4-Cl-α-PPP, 4’-chloro-α-pyrrolidinopropiophenone]",
    "Ki": "1.3 µM"
  },
  {
    "compound": "CCCC(Cc1ccccc1)N1CCCC1 (stereo not drawn) [Prolintane, 1-[1-(phenylmethyl)butyl]-pyrrolidine]",
    "Ki": "0.219 µM"
  },
  {
    "compound": "CN[C@@H](C)Cc1ccccc1 [METH, methamphetamine, reference compound]",
    "Ki": "4.41 µM"
  },
  {
    "compound": "CCCCC(C(=O)c1ccc2c(c1)OCO2)N1CCCC1 (stereo not drawn) [3,4-MDPHP]",
    "Ki": "0.0192 µM"
  },
  {
    "compound": "CCCCC(C(=O)c1ccc(F)cc1)N1CCCC1 (stereo not drawn) [4-F-α-PHP, 4’-fluoro-α–pyrrolidinohexanophenone]",
    "Ki": "0.122 µM"
  },
  {
    "compound": "CNC(C)Cc1ccc2c(c1)CCO2 (stereo not drawn) [5-MAPDB]",
    "Ki": "> 30 µM"
  },
  {
    "compound": "CNC(COC)C(=O)c1ccc(C)cc1 (stereo not drawn) [Mexedrone]",
    "Ki": "8.39 µM"
  }
]
